Consider the following molecules; for each one, report its Kd.
- experimental-target: Ephrin type-B receptor 3 (Homo sapiens); also: in the data inactive means no Kd found up to 30 µM
- Sequence (P54753 whole entry): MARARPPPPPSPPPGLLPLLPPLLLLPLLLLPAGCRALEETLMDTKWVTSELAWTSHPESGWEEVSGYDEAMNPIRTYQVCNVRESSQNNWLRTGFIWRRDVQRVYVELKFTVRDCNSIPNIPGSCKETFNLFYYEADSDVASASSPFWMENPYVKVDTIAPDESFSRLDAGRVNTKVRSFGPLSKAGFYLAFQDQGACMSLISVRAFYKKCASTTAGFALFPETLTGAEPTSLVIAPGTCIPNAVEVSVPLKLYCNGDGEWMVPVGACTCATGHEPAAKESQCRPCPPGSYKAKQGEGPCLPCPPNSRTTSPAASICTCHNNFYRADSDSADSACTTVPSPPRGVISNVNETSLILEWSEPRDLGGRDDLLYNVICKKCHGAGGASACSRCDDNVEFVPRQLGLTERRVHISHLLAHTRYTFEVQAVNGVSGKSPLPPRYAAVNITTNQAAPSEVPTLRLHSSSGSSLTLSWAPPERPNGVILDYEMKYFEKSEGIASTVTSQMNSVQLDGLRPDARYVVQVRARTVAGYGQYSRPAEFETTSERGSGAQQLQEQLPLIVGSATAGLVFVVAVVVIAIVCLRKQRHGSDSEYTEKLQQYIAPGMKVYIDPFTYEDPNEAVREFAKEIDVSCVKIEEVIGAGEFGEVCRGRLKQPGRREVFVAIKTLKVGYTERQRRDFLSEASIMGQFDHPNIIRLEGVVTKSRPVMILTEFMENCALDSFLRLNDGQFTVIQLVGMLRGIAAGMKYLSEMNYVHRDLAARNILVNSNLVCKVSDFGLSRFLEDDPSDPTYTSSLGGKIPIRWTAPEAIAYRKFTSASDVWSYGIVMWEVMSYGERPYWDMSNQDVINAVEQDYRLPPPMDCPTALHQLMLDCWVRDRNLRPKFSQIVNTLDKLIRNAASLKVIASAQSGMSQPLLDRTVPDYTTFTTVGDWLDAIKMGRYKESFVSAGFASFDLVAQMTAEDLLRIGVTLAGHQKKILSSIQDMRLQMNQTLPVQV
Activity calls are given as the source filed them.

Note Kd for the molecule shown: O=C(O)[C@]1(Cc2cccc(Nc3nccs3)n2)CC[C@@H](Oc2cccc(Cl)c2F)CC1
> 30 µM (inactive)

Return value of Kd for input CCCS(=O)(=O)Nc1ccc(F)c(C(=O)c2c[nH]c3ncc(-c4ccc(Cl)cc4)cc23)c1F , no commentary.
> 30 µM (inactive)

Return Kd for the following molecule: CCc1cnn2c(NCc3ccc[n+]([O-])c3)cc(N3CCCC[C@H]3CCO)nc12
> 30 µM (inactive)

Entry COC(=O)[C@@]1(O)C[C@H]2O[C@]1(C)n1c3ccccc3c3c4c(c5c6ccccc6n2c5c31)C(=O)NC4 [K-252A] needs its Kd filled in; supply it.
> 30 µM (inactive)

Please list Kd recorded for the molecule N[C@@H]1CCCN(c2c(/C=C3\SC(=O)NC3=O)cccc2-c2ccccc2)C1
> 30 µM (inactive)

Hello, please tell me recorded Kd for this one: Cc1ccc(-n2nc(C(C)(C)C)cc2NC(=O)NCc2cc(F)ccc2Oc2ccc3c(cnn3CCO)c2)cc1
28.2 µM

Look up and state reported Kd for CNS(=O)(=O)Nc1nccc(Cc2c(C)c3ccc(Oc4ncccn4)cc3oc2=O)c1F
> 30 µM (inactive)

For the molecule Cc1c(F)cc(C(=O)NC2CC2)cc1-c1ccc(C(=O)NCC(C)(C)C)cn1 , report Kd.
> 30 µM (inactive)

====

- experimental-target: Mitogen-activated protein kinase kinase kinase kinase 4 (Homo sapiens); also: in the data inactive means no Kd found up to 30 µM
- Sequence (O95819 whole entry): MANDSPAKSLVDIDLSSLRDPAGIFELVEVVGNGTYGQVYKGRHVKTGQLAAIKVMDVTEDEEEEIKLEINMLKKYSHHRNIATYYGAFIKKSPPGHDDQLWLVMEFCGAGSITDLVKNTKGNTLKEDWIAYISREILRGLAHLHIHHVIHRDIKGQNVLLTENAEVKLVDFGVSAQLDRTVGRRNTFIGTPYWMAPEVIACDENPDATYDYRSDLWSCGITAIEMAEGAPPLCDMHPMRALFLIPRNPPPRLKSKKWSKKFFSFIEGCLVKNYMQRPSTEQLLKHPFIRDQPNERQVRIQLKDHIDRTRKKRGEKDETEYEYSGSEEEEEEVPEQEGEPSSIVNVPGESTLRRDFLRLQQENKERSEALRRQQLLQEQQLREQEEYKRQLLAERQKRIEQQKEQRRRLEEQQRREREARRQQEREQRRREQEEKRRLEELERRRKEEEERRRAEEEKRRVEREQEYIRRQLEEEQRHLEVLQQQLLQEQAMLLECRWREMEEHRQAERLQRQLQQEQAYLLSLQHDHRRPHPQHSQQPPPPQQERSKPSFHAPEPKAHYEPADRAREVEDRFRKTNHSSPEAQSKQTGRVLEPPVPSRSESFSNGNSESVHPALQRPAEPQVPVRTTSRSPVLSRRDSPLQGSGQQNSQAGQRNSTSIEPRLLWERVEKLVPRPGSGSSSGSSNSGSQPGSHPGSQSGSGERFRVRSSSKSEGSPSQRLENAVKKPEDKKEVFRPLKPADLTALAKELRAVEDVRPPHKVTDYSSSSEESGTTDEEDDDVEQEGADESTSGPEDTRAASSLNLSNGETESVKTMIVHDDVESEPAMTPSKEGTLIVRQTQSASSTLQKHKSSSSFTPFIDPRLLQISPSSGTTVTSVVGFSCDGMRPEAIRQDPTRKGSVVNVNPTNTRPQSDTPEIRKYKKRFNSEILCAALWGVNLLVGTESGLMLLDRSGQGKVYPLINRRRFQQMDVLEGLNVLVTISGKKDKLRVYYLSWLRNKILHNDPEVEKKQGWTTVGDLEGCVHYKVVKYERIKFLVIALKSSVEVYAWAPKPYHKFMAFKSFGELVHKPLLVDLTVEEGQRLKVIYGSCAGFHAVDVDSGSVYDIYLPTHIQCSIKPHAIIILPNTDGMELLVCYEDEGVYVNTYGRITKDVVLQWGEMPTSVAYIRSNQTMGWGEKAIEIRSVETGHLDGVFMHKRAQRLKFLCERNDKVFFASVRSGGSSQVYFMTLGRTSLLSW
Calls of active or inactive are those of the source.
Hello, when you answer, please use one of the following outcomes: t (active), f (inactive)

GET /call?item= CO[C@H]1C[C@@H]2CC[C@@H](C)[C@@](O)(O2)C(=O)C(=O)N2CCCC[C@H]2C(=O)O[C@H]([C@H](C)C[C@@H]2CC[C@@H](OCCO)[C@H](OC)C2)CC(=O)[C@H](C)/C=C(\C)[C@@H](O)[C@@H](OC)C(=O)[C@H](C)C[C@H](C)/C=C/C=C/C=C/1C returns the recorded outcome of this test.
f

Please let me know the test result on file for CCCS(=O)(=O)Nc1ccc(F)c(C(=O)c2c[nH]c3ncc(-c4ccc(Cl)cc4)cc23)c1F .
f

Dear colleague, could you share the recorded outcome for COc1cc(N2CCC(N3CCN(C)CC3)CC2)ccc1Nc1ncnc(Nc2ccccc2S(=O)(=O)C(C)C)n1 when you have a moment?
f

What call does the record list for Cc1cc2c(F)c(Oc3ncnn4cc(OC[C@@H](C)OC(=O)[C@H](C)N)c(C)c34)ccc2[nH]1 [BRIVANIB ALANINATE] ?
t

Dear colleague, could you share the recorded outcome for O=C(c1ccc(F)c(F)c1Nc1ccc(I)cc1F)N1CC(O)([C@@H]2CCCCN2)C1 when you have a moment?
f

Record request — test call for CN1CCC(COc2cnc(-c3cccc(Cn4nc(-c5cccc(C#N)c5)ccc4=O)c3)nc2)CC1
f

Kindly provide the recorded test outcome for the following molecule: Cc1ccc(-n2nc(C(C)(C)C)cc2NC(=O)NCc2cc(F)ccc2Oc2ccc3c(cnn3CCO)c2)cc1
t

What did this assay record as the result for CN1CCC(CNc2ccc3ncc(-c4cccc(OC(F)(F)F)c4)n3n2)CC1 ?
f

What classification did CCS(=O)(=O)N1CC(CC#N)(n2cc(-c3ncnc4[nH]ccc34)cn2)C1 end up with in this test?
f

====

- experimental-target: Interleukin-1 receptor-associated kinase 3 (Homo sapiens); also: in the data inactive means no Kd found up to 30 µM
- Sequence (Q9Y616 whole entry): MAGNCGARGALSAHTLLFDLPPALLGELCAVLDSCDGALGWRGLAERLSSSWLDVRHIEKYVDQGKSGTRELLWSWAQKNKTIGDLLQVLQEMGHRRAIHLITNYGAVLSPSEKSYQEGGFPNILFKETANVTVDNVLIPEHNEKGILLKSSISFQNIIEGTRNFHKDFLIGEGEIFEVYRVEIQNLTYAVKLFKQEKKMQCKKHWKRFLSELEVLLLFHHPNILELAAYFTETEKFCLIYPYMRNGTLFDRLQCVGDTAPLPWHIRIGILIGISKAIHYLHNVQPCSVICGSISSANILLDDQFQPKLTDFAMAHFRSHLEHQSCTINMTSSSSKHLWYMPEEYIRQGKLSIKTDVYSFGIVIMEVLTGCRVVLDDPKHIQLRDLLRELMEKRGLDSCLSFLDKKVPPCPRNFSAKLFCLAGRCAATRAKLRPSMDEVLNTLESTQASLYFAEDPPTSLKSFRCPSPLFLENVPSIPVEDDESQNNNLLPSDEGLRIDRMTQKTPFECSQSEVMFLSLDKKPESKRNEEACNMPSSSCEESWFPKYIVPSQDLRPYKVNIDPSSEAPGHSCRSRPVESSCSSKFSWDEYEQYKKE
The source made the active and inactive calls.
Bench note: report the call from active, inactive

Recorded test call requested for COC(=O)[C@@]1(O)C[C@H]2O[C@]1(C)n1c3ccccc3c3c4c(c5c6ccccc6n2c5c31)C(=O)NC4 [K-252A]
active

Each compound tested received a call. Report the one for Cc1cc(-c2cc(O)ccc2Cl)cc2nnc(Nc3ccc(OCCN4CCCC4)cc3)nc12 .
inactive

Hi team, can someone confirm the assay call for Cc1ccc(NC(=O)c2ccc(CN3CC[C@H](N(C)C)C3)c(C(F)(F)F)c2)cc1Nc1nccc(-c2cncnc2)n1 ?
inactive

How was CNC(=O)c1ccc(-c2cnc3ncc(Cc4ccc5ncccc5c4)n3n2)cc1F classified in this test?
inactive

Hi team, can someone confirm the assay call for CN1N=C(N)c2cn([C@@H]3O[C@H](COP(=O)(O)O)[C@@H](O)[C@H]3O)c3ncnc1c23 [TRICIRIBINE PHOSPHATE] ?
inactive

Identify the outcome logged in this assay for the compound shown: Cn1cc(-c2ccc(F)c(C(F)(F)F)c2)nc1C1CCN(c2ncnc3[nH]ncc23)CC1
inactive

Identify the outcome logged in this assay for the compound shown: COc1cc(N2CCC(N3CCN(C)CC3)CC2)ccc1Nc1ncnc(Nc2ccccc2S(=O)(=O)C(C)C)n1
inactive

Field: outcome | Entry: Cc1cc(Nc2cc(N3CCN(C)CC3)nc(/C=C/c3ccccc3)n2)n[nH]1
inactive

What is the recorded call for this compound in the test? Cc1cc2c(F)c(Oc3ncnn4cc(OC[C@@H](C)OC(=O)[C@H](C)N)c(C)c34)ccc2[nH]1 [BRIVANIB ALANINATE]
inactive

Can you look up the reported call for CCCS(=O)(=O)Nc1ccc(F)c(C(=O)c2c[nH]c3ncc(-c4ccc(Cl)cc4)cc23)c1F for me?
inactive

What is the recorded call for this compound in the test? C[C@@H](c1ccc2nccn2c1)n1nnc2ncc(-c3cnn(C)c3)nc21
inactive

Which result was noted for this compound in the test: O=C1NC(=O)/C(=C/c2ccc3nccc(-c4ccncc4)c3c2)S1
active

Can you look up the reported call for O=C(Nc1cccc(Cl)c1)Nc1ncc(CCNc2ncnc3ccsc23)s1 for me?
inactive

Could you check what this test reported for OCCn1cc(-c2cnc3nnn(Cc4ccc5ncccc5c4)c3n2)cn1 ?
inactive

Per the records of this test, what outcome belongs to COc1cc2nccc(Oc3ccc(NC(=O)Nc4cc(C)on4)c(Cl)c3)c2cc1OC ?
inactive

Each compound tested received a call. Report the one for CNC(=O)c1ccc(C)c(-n2c(C)cc(OCc3ccc(F)cc3F)c(Br)c2=O)c1 .
inactive

Dear all, I need the recorded test outcome for O=C(O)[C@]1(Cc2cccc(Nc3nccs3)n2)CC[C@@H](Oc2cccc(Cl)c2F)CC1 , thank you.
active

# fetch the recorded call for C[C@@H](Nc1cc(F)cc(F)c1)c1cc(C(=O)N(C)C)cc2c(=O)cc(N3CCOCC3)oc12 here
inactive

What call does the record list for Cc1nc(N)sc1-c1ccnc(Nc2ccc(N3CCOCC3)cc2)n1 ?
active

Dear colleague, could you share the recorded outcome for COC(=O)N[C@@H](C)CNc1nccc(-c2cn(C(C)C)nc2-c2cc(Cl)cc(NS(C)(=O)=O)c2F)n1 when you have a moment?
inactive

Record lookup: outcome of this test for CN1CCC(CNc2ccc3ncc(-c4cccc(OC(F)(F)F)c4)n3n2)CC1 ?
active
